# STUDY SYSTEM: HCV NS3 helicase (Hepatitis C virus genotype 1b)
# Construct: full-length NS3 (1-631), purified at Array BioPharma
# ASSAY PROCEDURE: HCV Helicase Prompt FRET Assay (Example A)
# Assay type: biochemical
# DETAILS: HCV NS3 helicase; tables do not say whether Example A or Example B assay; read-out: IC50 Activity
Provide the reported IC50 of each item.

Here's what some known entries look like.
                        structure_as_smiles       result
0   O=C(O)Cc1cn(Cc2csc3ccc(F)cc23)c2ccccc12  10 to 50 µM
1  CCOC(=O)C(=O)c1cn(-c2ccc([N+](=O)[O-])cc2C)c2ccc(Br)cc12  10 to 50 µM
2  O=C(O)Cc1cn(Cc2cccc(Oc3cccc(C(F)(F)F)c3)c2)c2ccccc12      < 10 µM
3  O=C(O)Cc1cn(Cc2ccc(Oc3cccc(Cl)c3)cc2)c2ccccc12      < 10 µM
4  CC(C)c1ccc(Cn2cc(C(=O)C(=O)O)c3ccccc32)cc1  10 to 50 µM

Working through the 6 compounds below one at a time, give IC50 for each.
1. CCOC(=O)c1c(CC(=O)O)c2cc(Br)ccc2n1Cc1ccc(C(C)C)cc1
2. Cc1cc([N+](=O)[O-])ccc1-n1cc(C=O)c2cc(OCc3ccccc3)ncc21
3. COc1ccc(OC)c(Oc2ccc(Cn3cc(CC(=O)O)c4ccccc43)cc2)c1
4. Nc1cc(-c2ccc3c(CC(=O)O)cn(Cc4csc5ccc(Cl)cc45)c3c2)cc([N+](=O)[O-])c1
5. O=C(O)Cc1cn(Cc2ccc(Oc3cc(C(F)(F)F)cc(C(F)(F)F)c3)cc2)c2ccccc12
6. O=C(O)Cc1c(C(=O)c2ccc(-c3ccccc3)cc2)n(CC2CC2)c2ccccc12

stdout:
1: 10 to 50 µM; 2: > 50 µM; 3: < 10 µM; 4: < 10 µM; 5: < 10 µM; 6: < 10 µM

Required: IC50, one value per compound below.
1. COc1cc2c(cc1OCc1ccccc1)c(CC(=O)O)cn2-c1ccc([N+](=O)[O-])cc1C
2. O=C(O)Cc1cn(Cc2csc3ccc(Cl)cc23)c2ccc(Br)cc12
3. CCOc1ccc2scc(Cn3cc(CC(=O)O)c4ccccc43)c2c1

stdout:
1. 10 to 50 µM
2. 10 to 50 µM
3. 10 to 50 µM

----------
# STUDY SYSTEM: HCV NS3 helicase (Hepatitis C virus genotype 1b)
# Construct: full-length NS3 (1-631), purified at Array BioPharma
# ASSAY PROCEDURE: HCV Helicase Prompt FRET Assay (Example A)
# Type: biochemical
# DETAILS: HCV NS3 helicase; tables do not say whether Example A or Example B assay; read-out: IC50 Activity
# Method: Test compounds were diluted to 2.5 mM by adding 6 uL of a 10 mM solution of the compound to 18 uL of DMSO in a 384-well Costar polypropylene plate. Serial dilutions (2.5×) were performed in the plate using DMSO as the diluent. 1 ul of solution was transferred from each well to a new 384-well Costar polypropylene plate. […] The ATP solution was prepared in MilliQ water, pH adjusted to approximately 7 with NaOH. […] The concentration was determined via A260 (ext. coeff=15,400 M^−1cm^−1). […]
MEASURED PROPERTY: IC50

Field: example entries. Status: answers known.
In [3]: df
Out[3]:
                                   compound       result
0  CC(C)c1ccc(Cn2cc(C(NC(N)=O)C(=O)O)c3ccccc32)cc1 (centres unmarked)  10 to 50 µM
1  CCS(=O)(=O)NC(=O)Cc1cn(Cc2csc3ccc(Cl)cc23)c2ccccc12  10 to 50 µM

I need IC50 for every entry listed below, if you could help.
1. CN(Cc1ccccc1F)c1ccc(-n2cc(CC(=O)O)c3ccccc32)cc1
2. Cc1cc([N+](=O)[O-])ccc1-n1cc(CCC(=O)O)c2cc(Br)ccc21
3. CC(C)c1ccc(Cn2c(C(=O)NC3CC3)c(CC(=O)O)c3cc(Br)ccc32)cc1
4. O=C(O)Cc1cn(Cc2csc3ccc(Cl)cc23)c2cc(-c3cccnc3)ccc12
5. Cc1cc([N+](=O)[O-])ccc1-n1cc(I)c2cc(Br)cnc21

stdout:
< 10 µM
10 to 50 µM
10 to 50 µM
10 to 50 µM
> 50 µM

State recorded IC50 for all listed compounds.
1. CN(c1cccc(F)c1)c1cccc(Cn2cc(CC(=O)O)c3ccccc32)c1
2. O=C(O)Cc1cn(CCCc2ccccc2)c2ccc(Br)cc12
3. COc1ccc2c(c1)c(CC(=O)O)cn2Cc1csc2ccc(Cl)cc12
4. Cc1cc(-c2ccc(C(=O)c3[nH]c4ccccc4c3CC(=O)O)cc2)ccc1Cl
5. O=C(O)Cc1cn(-c2ccc(-c3ccccc3Cl)cc2)c2ccccc12
6. O=C(O)Cc1c(C(=O)c2ccc(-c3ccccc3Br)cc2)[nH]c2ccccc12
7. Cc1cc([N+](=O)[O-])ccc1-n1cc(C=CC(=O)O)c2cc(OCc3ccccc3)ncc21

stdout:
< 10 µM
10 to 50 µM
10 to 50 µM
< 10 µM
< 10 µM
10 to 50 µM
> 50 µM

Dear reader, for each entry below, please note its IC50.
1. CC(C)(C)OC(=O)NCc1ccc2c(c1)c(Cc1nn[nH]n1)cn2Cc1csc2ccc(Cl)cc12
2. O=C(O)Cc1c(Cc2csc3ccc(Cl)cc23)n(Cc2ccccc2)c2cc(OCc3ccccc3)ccc12

stdout:
1: < 10 µM; 2: < 10 µM

Entry O=C(O)Cc1c(C(=O)c2cccc(-c3cccc(Cl)c3Cl)c2)[nH]c2ccccc12 ; assay system HCV NS3 helicase (Hepatitis C virus genotype 1b); IC50 recorded at < 10 µM

----------
# STUDY SYSTEM: HCV NS3 helicase (Hepatitis C virus genotype 1b, UniProt P26663)
# Construct: full-length NS3 (1-631), purified at Array BioPharma
# Sequence (P26663 1027-1657): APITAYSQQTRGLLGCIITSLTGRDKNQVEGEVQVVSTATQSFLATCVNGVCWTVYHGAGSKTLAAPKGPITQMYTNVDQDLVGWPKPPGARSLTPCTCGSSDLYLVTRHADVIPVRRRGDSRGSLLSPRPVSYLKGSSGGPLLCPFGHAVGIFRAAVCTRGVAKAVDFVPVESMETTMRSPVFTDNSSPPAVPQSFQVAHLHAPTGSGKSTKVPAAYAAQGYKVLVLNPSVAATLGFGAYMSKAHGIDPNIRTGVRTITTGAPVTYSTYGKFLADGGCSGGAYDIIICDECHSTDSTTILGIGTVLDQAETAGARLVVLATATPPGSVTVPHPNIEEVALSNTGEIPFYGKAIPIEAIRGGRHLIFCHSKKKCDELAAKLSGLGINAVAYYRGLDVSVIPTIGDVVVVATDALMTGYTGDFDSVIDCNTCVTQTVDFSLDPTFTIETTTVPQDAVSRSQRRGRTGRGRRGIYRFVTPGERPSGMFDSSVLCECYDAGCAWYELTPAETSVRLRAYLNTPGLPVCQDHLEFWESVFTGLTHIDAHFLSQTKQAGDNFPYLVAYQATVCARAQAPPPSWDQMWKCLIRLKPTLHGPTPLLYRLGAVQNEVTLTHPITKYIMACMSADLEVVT
# ASSAY PROCEDURE: HCV Helicase Prompt FRET Assay (Example A)
# Assay type: biochemical
# DETAILS: HCV NS3 helicase; tables do not say whether Example A or Example B assay; read-out: IC50 Activity
MEASURED PROPERTY: IC50

Worked cases, IC50 given:
                        structure_as_smiles       result
0  O=C(O)Cc1cn(Cc2csc3ccc(Cl)cc23)c2ccccc12  10 to 50 µM
1  C=CCn1c(Cc2csc3ccc(Cl)cc23)c(CC(=O)O)c2ccc(OCc3ccccc3)cc21      < 10 µM
2  O=C(Cc1cn(Cc2cccc(CCc3ccccc3)c2)c2ccc(Br)cc12)N1CCCC1  10 to 50 µM
3  Cc1cccc(CN(C)c2ccc(-n3cc(CC(=O)O)c4ccccc43)cc2)c1      < 10 µM
4  O=C(O)Cc1c(C(=O)c2cccc(-c3ccc(Cl)c(Cl)c3)c2)[nH]c2ccccc12      < 10 µM
5  CN(c1cccc(Cn2cc(CC(=O)O)c3ccccc32)c1)c1ccc(Cl)cc1Cl      < 10 µM

Take each entry in turn and give its IC50.
1. O=C(O)Cc1c(C(=O)c2ccc(-c3ccccc3)cc2)n(Cc2ccccc2)c2ccccc12
2. COc1cccc(Oc2ccc(Cn3cc(CC(=O)O)c4ccccc43)cc2)c1OC
3. CN(c1cccc(Cn2cc(CC(=O)O)c3ccccc32)c1)c1c(Cl)cccc1Cl

stdout:
1: < 10 µM; 2: < 10 µM; 3: < 10 µM

----------
# STUDY SYSTEM: HCV NS3 helicase (Hepatitis C virus genotype 1b, UniProt P26663)
# Construct: full-length NS3 (1-631), purified at Array BioPharma
# ASSAY PROCEDURE: HCV Helicase Prompt FRET Assay (Example A)
# Assay type: biochemical
# DETAILS: Table 21, compounds made using Scheme 28; read-out: IC50 Activity
For each entry below, report its IC50 value.

Worked examples, 3 compounds total:
>>> print(df.to_string())
                        structure_as_smiles  measured_property       result
0  CN(c1ccc(Cl)cc1)c1ccc(Cn2cc(CC(=O)O)c3ccccc32)cc1               IC50      < 10 µM
1  COc1cccc(N(C)c2ccc(Cn3cc(CC(=O)O)c4ccccc43)cc2)c1               IC50      < 10 µM
2  COc1ccccc1N(C)c1ccc(Cn2cc(CC(=O)O)c3ccccc32)cc1               IC50  10 to 50 µM

Would you be so kind as to report IC50 for each listed record?
1. CN(c1ccc(Cn2cc(CC(=O)O)c3ccccc32)cc1)c1ccc(C(F)(F)F)cc1
2. CN(c1ccc(Cn2cc(CC(=O)O)c3ccccc32)cc1)c1cc(C(F)(F)F)cc(C(F)(F)F)c1
3. CN(c1ccc(Cn2cc(CC(=O)O)c3ccccc32)cc1)c1cccc(C(F)(F)F)c1

stdout:
1. < 10 µM
2. < 10 µM
3. < 10 µM

Please go through the list and note IC50 for each compound.
1. CN(c1ccc(Cn2cc(CC(=O)O)c3ccccc32)cc1)c1cc(C(F)(F)F)ccc1C(F)(F)F
2. CN(c1ccc(Cn2cc(CC(=O)O)c3ccccc32)cc1)c1ccccc1Cl
3. CN(c1ccc(Cn2cc(CC(=O)O)c3ccccc32)cc1)c1cccc(F)c1F
4. CN(c1ccc(F)cc1)c1ccc(Cn2cc(CC(=O)O)c3ccccc32)cc1
5. CCOC(=O)Cc1cn(Cc2ccc(N(C)c3ccccc3F)cc2)c2ccccc12
6. CN(c1ccc(Cn2cc(CC(=O)O)c3ccccc32)cc1)c1cccc(Cl)c1Cl

stdout:
< 10 µM
< 10 µM
< 10 µM
10 to 50 µM
10 to 50 µM
< 10 µM

Return reported IC50 values for all items listed beneath this line.
1. CN(c1ccc(Cn2cc(CC(=O)O)c3ccccc32)cc1)c1c(F)cccc1F
2. CN(c1ccc(Cn2cc(CC(=O)O)c3ccccc32)cc1)c1ccccc1C(F)(F)F
3. CN(c1ccc(Cn2cc(CC(=O)O)c3ccccc32)cc1)c1cccc(Cl)c1
4. CN(c1ccc(Cn2cc(CC(=O)O)c3ccccc32)cc1)c1ccc(C(F)(F)F)cc1C(F)(F)F

stdout:
1. 10 to 50 µM
2. < 10 µM
3. < 10 µM
4. < 10 µM

Could you report IC50 for every entry in the following list?
1. CN(c1ccc(Cn2cc(CC(=O)O)c3ccccc32)cc1)c1cc(F)ccc1F
2. COc1ccc(N(C)c2ccc(Cn3cc(CC(=O)O)c4ccccc43)cc2)cc1
3. CN(c1ccc(Cn2cc(CC(=O)O)c3ccccc32)cc1)c1c(Cl)cccc1Cl
4. CN(c1ccc(Cn2cc(CC(=O)O)c3ccccc32)cc1)c1cccc(F)c1
5. CN(c1ccc(Cn2cc(CC(=O)O)c3ccccc32)cc1)c1ccc(F)cc1F
6. CN(c1ccc(Cn2cc(CC(=O)O)c3ccccc32)cc1)c1cc(Cl)ccc1Cl
7. COc1ccc(OC)c(N(C)c2ccc(Cn3cc(CC(=O)O)c4ccccc43)cc2)c1
8. COc1ccc(N(C)c2ccc(Cn3cc(CC(=O)O)c4ccccc43)cc2)c(OC)c1

stdout:
["< 10 µM", "< 10 µM", "< 10 µM", "< 10 µM", "< 10 µM", "< 10 µM", "< 10 µM", "10 to 50 µM"]
